Consider the following molecules; for each one, report its pEC50.
# System: HIV
# Measurement notes: Cellular assay: anti-viral activity in HIV-infected MT4 cells (MTT read-out)
# Assay type: cell-based
# Assay conditions: Human immunodeficiency virus 1, 120 h, five days incubation, MTT cell viability, negative logarithm of EC50 (protection of 50% of cells from cytopathogenic effect of the virus)
The scale used: pEC50 is minus the common logarithm of the concentration in molar units.

query: State the recorded pEC50 for this entry: "Cn1c2ccccc2c2c1ccc(=O)n2-c1cnc2ccccc2c1"
result: 5.20

query: State the recorded pEC50 for this entry: "Cn1c2ccccc2c2c1cc(C#N)c(=O)n2-c1ccc(Cl)nc1"
result: 6.10

query: State the recorded pEC50 for this entry: "Cn1c2ccccc2c2c1cc(C#N)c(=O)n2-c1ccnc(C(N)=O)c1"
result: 5.30

query: State the recorded pEC50 for this entry: "Cn1c2ccccc2c2c1cc(C#N)c(=O)n2-c1ccc(C#N)nc1"
result: 5.00

query: State the recorded pEC50 for this entry: "Cc1ccc(-n2c(=O)c(C#N)cc3c2c2ccccc2n3C)cn1"
result: 6.00

query: State the recorded pEC50 for this entry: "COc1ccc(-n2c(=O)c(C#N)cc3c2c2ccccc2n3C)cn1"
result: 5.50

query: State the recorded pEC50 for this entry: "N#Cc1cc2[nH]c3ccccc3c2n(-c2ccnc(Cl)c2)c1=O"
result: 4.80

query: State the recorded pEC50 for this entry: "Cc1cc(-n2c(=O)c(C#N)cc3c2c2ccccc2n3C)cnc1Cl"
result: 6.10

query: State the recorded pEC50 for this entry: "Cn1c2ccccc2c2c1cc(C#N)c(=O)n2-c1cncnc1"
result: 4.70

query: State the recorded pEC50 for this entry: "N#Cc1cc2[nH]c3ccccc3c2n(-c2ccc(Cl)nc2)c1=O"
result: 5.60

query: State the recorded pEC50 for this entry: "Cn1c2ccccc2c2c1cc(C#N)c(=O)n2-c1cnc2ccccc2c1"
result: 5.60

query: State the recorded pEC50 for this entry: "Cn1c2ccc(O)cc2c2c1cc(C#N)c(=O)n2-c1ccc(Cl)nc1"
result: 5.40

query: State the recorded pEC50 for this entry: "Cn1ccc2cc(-n3c(=O)ccc4c3c3ccccc3n4C)ccc21"
result: 5.20

query: State the recorded pEC50 for this entry: "Cn1c2ccccc2c2c1cc(C#N)c(=O)n2-c1ccc(Br)nc1"
result: 5.50

query: State the recorded pEC50 for this entry: "Cn1c2ccccc2c2c1ccc(=O)n2-c1cc2ccccc2s1"
result: 4.90

query: State the recorded pEC50 for this entry: "Cn1c2ccccc2c2c1cc(C#N)c(=O)n2-c1ccc2nc(C(F)(F)F)cn2c1"
result: 4.90

query: State the recorded pEC50 for this entry: "COc1ncc(-n2c(=O)c(C#N)cc3c2c2ccccc2n3C)cn1"
result: 5.60

query: State the recorded pEC50 for this entry: "Cn1c2ccccc2c2c1cc(C#N)c(=O)n2-c1ccc(F)nc1"
result: 5.10

Data provenance: patent US7615639B2
